Target: immunoproteasome LMP7/B5i subunit (Homo sapiens, UniProt P28062)
Assay: Caliper-based proteasome enzymatic activity assay, LMP7
Assay type: biochemical
Settings: human recombinant immunoproteasome 0.3 nM, FAM-labeled peptide substrate 1 μM, rt 3 h; read-out: LMP7 subunit IC50
recorded.endpoint: IC50 (µM)

{"columns": ["structure.as.smiles", "IC50 (µM)"],
 "data": [
  ["CC(C)(C=C(C#N)C(=O)N1C[C@@H](F)[C@@H](OC(=O)N[C@@H](Cc2ccccc2)B(O)O)C1)N1CCC(F)(F)C1", 0.0037],
  ["CC(C)(C=C(C#N)C(=O)N1C2CCC1(COC(=O)N[C@@H](Cc1ccc(F)cc1)B(O)O)CC2)N1CCOCC1", 0.0017],
  ["CC(C)C=C(C#N)C(=O)N1CCC(CCCC(=O)N[C@@H](Cc2ccccc2)B(O)O)CC1", 0.319]
]}

1 = CC(C)C=C(C#N)C(=O)N(C)c1cccc(C[C@H](NCC(F)(F)F)C(=O)N[C@@H](Cc2ccccc2)B(O)O)c1
2 = CC(C)(C=C(C#N)C(=O)N1CCC[C@H](NC(=O)N[C@@H](Cc2ccccc2)B(O)O)C1)N1CCC(F)(F)C1
3 = CC(C)(C=C(C#N)C(=O)N1CCC[C@H](OC(=O)N[C@@H](CC2=CCCC2)B(O)O)C1)N1CCC(F)(F)C1
4 = CC1(C)CCN(C(C)(C)C=C(C#N)C(=O)N2CCC[C@H](OC(=O)N[C@@H](Cc3coc4ccccc34)B(O)O)C2)C1
Task item: Rank the 4 molecules: largest IC50 first, smallest last. The response must list the labels following the requested ordering.
Reply: 2, 4, 1, 3

This collection of values is drawn from patent US12312370B2.
